Source of measurements: PubChem BioAssay (NCATS)

Below, each entry is listed alongside its reported activation.
Target: Cellular tumor antigen p53 (Homo sapiens)
Assay: Primary qHTS for small molecule compounds that upregulate eGFP-tagged delta133p53alpha (in N-terminal) cells. (AID 2060322);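 note: cells pre-induced with doxycycline then dosed without doxycycline; series mostly up to about 56 µM; 0% = DMSO vehicle and 100% = reference activator; nearly all actives have a fitted effect of over 75% in size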
Details: NCI-H358 eGFP-delta133p53alpha fluorescence, 24 h; stronger effect = higher value
Records with an inconclusive call do not appear. Calls of active or inactive are those of the source. Calls come from the whole dose curve; as a rule, active = well fitted activation curve with a large enough effect; inconclusive = small, poorly fitted or top-dose-only effect; inactive = no such curve, though single readings can be large or run the other way.

# molecule, activation
records = [
    ("COc1ccc(-c2oc3c(CC=C(C)C)c(OC4O[C@H](CO)[C@@H](O)[C@H](O)[C@@H]4O)cc(O)c3c(=O)c2OC2O[C@@H](C)[C@H](O)[C@@H](O)[C@@H]2O)cc1 (stereo partly specified)", "-27.6% (inactive)"),
    ("COC1=Cc2c(nc3n(c2=O)C(C)C(=O)NC3(O)C(C)C)OC=C1 (stereo unspecified)", "-17.6% (inactive)"),
    ("CC(C)NCCCn1c(Sc2cc3c(cc2I)OCO3)nc2c(N)ncnc21", "10% (inactive)"),
    ("O=C(O)c1cc(=O)c2c(Cl)cc(Cl)cc2[nH]1", "-19.2% (inactive)"),
    ("CC(=O)OC(C)(C)/C=C/C(=O)[C@](C)(O)[C@H]1C(O)C[C@@]2(C)[C@@H]3CC=C4[C@@H](C=C(O[C@@H]5O[C@H](CO)[C@@H](O)[C@H](O)[C@H]5O)C(=O)C4(C)C)[C@]3(C)C(=O)C[C@]12C (stereo partly specified)", "22.3% (inactive)"),
    ("CC(=O)C(C)=O", "-5.18% (inactive)"),
    ("CC(C)(O)/C=C/C(=O)[C@](C)(O)[C@H]1[C@H](O)C[C@@]2(C)[C@@H]3CC=C4[C@@H](C=C(O[C@@H]5O[C@H](CO)[C@@H](O)[C@H](O)[C@H]5O)C(=O)C4(C)C)[C@]3(C)C(=O)C[C@]12C", "-13.7% (inactive)"),
    ("CC(C)NC(=O)N1CC[C@H](N=C2Nc3cc(F)ccc3N(CC(F)F)c3ccc(Cl)cc32)C1", "4.33% (inactive)"),
    ("CCN=C1N[C@@H]2[C@@H](O)[C@H](O)[C@@H](CO)O[C@@H]2S1", "1.43% (inactive)"),
    ("Cc1nc(N=Nc2ccc(C(=O)O)cc2)c(COP(=O)(O)O)c(C=O)c1O", "-2.63% (inactive)"),
    ("C[C@H](CCC(=O)O)[C@H]1CC[C@H]2[C@H]3[C@@H](CC[C@]12C)[C@@]1(C)CC[C@@H](O)C[C@H]1C[C@@H]3O", "-8.06% (inactive)"),
    ("Cc1c(-c2cccc3c(CCCOc4cccc5ccccc45)c(C(=O)O)n(Cc4cccnc4)c23)c(COc2ccc(N3CCN([S+](=O)([O-])N(C)C)CC3)cc2)nn1C", "-39.2% (inactive)"),
    ("CO[C@H]1C[C@@H]2CC[C@@H](C)[C@@](O)(O2)C(=O)C(=O)N2CCCC[C@@H]2C(=O)O[C@H]([C@H](C)C[C@@H]2CC[C@H](OCCO)[C@H](OC)C2)CC(=O)[C@H](C)C=C(C)[C@@H](O)[C@@H](OC)C(=O)[C@H](C)C[C@H](C)C=CC=CC=C1C", "24.4% (inactive)"),
    ("Cc1ccc(/C=N/n2c(-c3ccccc3)csc2=S)cc1", "24.3% (inactive)"),
    ("Cc1nc(NC(=O)N2CCC[C@H]2C(N)=O)sc1-c1ccnc(C(C)(C)C(F)(F)F)c1", "-25% (inactive)"),
    ("CC1CC(C(O)C(C)(C)O)OC2CC3(C)C4(C)CCC5C(C)(C)C(=O)CCC5(C)C4CCC3(O)C12O (stereo unspecified)", "-11.5% (inactive)"),
]
